The measurements presented in this section are drawn from the RNAGym collection of RNA variant scans (doi:10.7554/elife.80360).

B1: Hairpin Ribozyme (parent)
chain: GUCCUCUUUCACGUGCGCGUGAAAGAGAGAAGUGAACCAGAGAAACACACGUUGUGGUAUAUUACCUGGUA

variants of: B1; experiment: self-cleavage, relative activity (ratio to wild type); higher = more cleavage; co-transcriptional
Rule: self-cleavage of 0.2 or more gives yes (1); anything lower gives no (0).

Examples from the recorded data:
{"columns": ["variant_descriptor", "answer_label"],
 "data": [
  ["U33G G69A", "no (0)"],
  ["G25U A45C", "yes (1)"],
  ["A43C A71C", "yes (1)"]
]}

Entry A24C G29U : is its self-cleavage no less than 0.2?
no (0)

Please check the record G13A A30G and state if its self-cleavage is at or above 0.2.
no (0)

Textbook exercise: given the entry U20C C50G , state whether its self-cleavage is greater than or equal to 0.2.
yes (1)

Does self-cleavage meet or surpass 0.2 for A24U U70C ?
yes (1)

Tell me whether self-cleavage is at least 0.2 here: G17A G29A
no (0)

Does self-cleavage meet or surpass 0.2 for `C38G` ?
no (0)
